- System: SD rats
- experiment-summary: Respiratory depression in rats, arterial blood gas PCO2
- Assay type: in vivo
- condition-notes: intravenous single dose 0.3 mg/kg (morphine 24 mg/kg), 5 min
Hi there, I'd appreciate the recorded PCO2, 5 min after administration for every entry that follows.
Provide only the numeric value, understood in mmHg.

What value of measured PCO2, 5 min after administration is listed for FC(F)(F)Oc1ccc(Cl)cc1CNCCC1(c2ccccn2)CCOC2(CCCC2)C1 (stereo not drawn) ?
35.48

Further, for Fc1ccc(C2(CCNCc3ccccc3OC(F)(F)F)CCOC3(CCCC3)C2)nc1 (stereo not drawn) ?
35.48

What do we get for CNc1ccsc1C(=O)NCCC1(c2ccccn2)CCOC2(CCCC2)C1 (stereo not drawn) ?
36.48

// same read-out, input: Clc1ccsc1CNCCC1(c2ccccn2)CCOC2(CCCC2)C1 (stereo not drawn)
36.15

Record: Cc1ccc(CNCCC2(c3ccccn3)CCOC3(CCCC3)C2)c(C)c1 (stereo not drawn)
35.48

Same question for Cc1cc(F)cnc1C1(CCNCc2ccccc2OC(F)(F)F)CCOC2(CCCC2)C1 (stereo not drawn) please.
37.48

Another: CN1CC[C@]23c4c5ccc(O)c4O[C@H]2[C@@H](O)C=C[C@H]3[C@H]1C5 [morphine, reference compound]
37.26

Then what about the compound FC(F)Oc1ccccc1CNCCC1(c2ccccn2)CCOC2(CCCC2)C1 (stereo not drawn) ?
30.48

Another compound: FC(F)Oc1ccsc1CNCCC1(c2ccccn2)CCOC2(CCCC2)C1 (stereo not drawn)
35.48
